Reference for the values: patent US9879050B2

Target: Sa-ClpP (Staphylococcus aureus, UniProt Q2G036)
Construct: made in house; host or cells: E. coli BL21 (DE3)
Sequence (Q2G036 whole entry): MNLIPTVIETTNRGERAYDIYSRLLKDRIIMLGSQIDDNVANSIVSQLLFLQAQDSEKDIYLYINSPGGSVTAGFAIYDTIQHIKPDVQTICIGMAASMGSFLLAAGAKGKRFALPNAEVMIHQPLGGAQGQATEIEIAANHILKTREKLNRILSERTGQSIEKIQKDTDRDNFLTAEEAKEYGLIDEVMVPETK
Test: ClpP activation, EnzCheck Protease Assay with Bodipy-FL casein (second described method)
Assay type: biochemical, S. aureus
pEC50: −log10 of the molar value. *1 amine or outer side, *2 acyl side, *3 side chain or, on linkers, in order; H or OH if unused. Where a SMILES comes first, the peptide text is derived from it. Bridges are numbered along the chain shown (N, C = ends). [ ]: non-standard residue; d: D form. The star is where a group is joined. ξ: configuration not given here. Phe(3,5-F2) = N[C@@H](Cc1cc(F)cc(F)c1)C(=O)O; NH(4-OCF3-phenyl) = FC(F)(F)Oc1ccc(N*)cc1; ξPro(4S-Me) = C[C@@H]1CNC(C(=O)O)C1; aThr = C[C@H](O)[C@H](N)C(=O)O; X1 = O=C(C1COCCN1[*:1])[*:2]; CO = O=C([*:1])[*:2]; ξP = O=C(O)C1CCCN1
Reported pEC50 is given for each of the following compounds.
readout type: pEC50

compound	readout type	readout value
C[C@@H]1CC2C(=O)O[C@@H](C)[C@H](NC(=O)[C@H](Cc3cc(F)cc(F)c3)NC(=O)Nc3ccc(OC(F)(F)F)cc3)C(=O)N3CCCC3C(=O)N3CCCCC3C(=O)N[C@@H](C)C(=O)N2C1 (stereo partly shown) [Compound 40]	pEC50	6.44
CCc1ccc(NC(=O)N[C@@H](Cc2cc(F)cc(F)c2)C(=O)N[C@@H]2C(=O)N3CCCC3C(=O)N(C)[C@@H](C)C(=O)N[C@@H](C)C(=O)N3C[C@@H](C)CC3C(=O)O[C@H]2C)cc1 (stereo partly shown) [Compound 30]	pEC50	6.37
C[C@H]1CC2C(=O)O[C@@H](C)[C@H](NC(=O)[C@H](Cc3cc(F)cc(F)c3)NC(=O)Nc3ccc(OC(F)(F)F)cc3)C(=O)N3CCCC3C(=O)N(C)[C@@H](C)C(=O)N[C@@H](C)C(=O)N2C1 (stereo partly shown) [Compound 28]	pEC50	6.72
C[C@@H]1NC(=O)[C@@H]2CCCCN2C(=O)[C@@H]2CCCN2C(=O)[C@@H](NC(=O)[C@H](Cc2cc(F)cc(F)c2)NC(=O)Nc2ccc3c(c2)OCO3)[C@H](C)OC(=O)[C@@H]2CCCN2C1=O [Compound 17]	pEC50	6.14
CCc1ccc(NC(=O)N[C@@H](Cc2cc(F)cc(F)c2)C(=O)N[C@@H]2C(=O)N3CCCC3C(=O)N(C)[C@@H](C)C(=O)N[C@@H](C)C(=O)N3CCCC3C(=O)O[C@H]2C)cc1 (stereo partly shown) [Compound 29]	pEC50	6.60
C[C@H]1CC2C(=O)OC[C@H](NC(=O)[C@H](Cc3cc(F)cc(F)c3)NC(=O)Nc3ccc4c(c3)OCO4)C(=O)N3CCCC3C(=O)N3CCCCC3C(=O)N[C@@H](C)C(=O)N2C1 (stereo partly shown) [Compound 46]	pEC50	6.49
C[C@H]1CC2C(=O)O[C@@H](C)[C@H](NC(=O)[C@H](Cc3cc(F)cc(F)c3)NC(=O)Nc3ccc(OC(F)(F)F)cc3)C(=O)N3C[C@H](O)CC3C(=O)N(C)[C@@H](C)C(=O)N[C@@H](C)C(=O)N2C1 (stereo partly shown) [Compound 32]	pEC50	6.40
C[C@H]1C[C@H]2C(=O)O[C@@H](C)[C@H](NC(=O)[C@H](Cc3cc(F)cc(F)c3)NC(=O)Nc3ccc4c(c3)OCO4)C(=O)N3CCC[C@H]3C(=O)N3CCCC[C@H]3C(=O)N[C@@H](C)C(=O)N2C1 [Compound 20]	pEC50	6.44
C[C@H]1CC2C(=O)O[C@@H](C)[C@H](NC(=O)[C@H](Cc3cc(F)cc(F)c3)NC(=O)Nc3ccc(OC(F)(F)F)cc3)C(=O)N3CCCC3C(=O)N3CCOCC3C(=O)N[C@@H](C)C(=O)N2C1 (stereo partly drawn) [Compound 34] ({NH(4-OCF3-phenyl)-CO}-[Phe(3,5-F2)][aThr][ξP][X1]A[ξPro(4S-Me)]; ester 2-C)	pEC50	6.48
C[C@H]1CC2C(=O)OC[C@H](NC(=O)[C@H](Cc3ccccc3)NC(=O)Nc3ccc(OC(F)(F)F)cc3)C(=O)N3CCCC3C(=O)N3CCCCC3C(=O)N[C@@H](C)C(=O)N2C1 (stereo partly shown) [Compound 44]	pEC50	6.55
